System: K-562 leukemia
Assay: NCI tumour cell line growth inhibition, 48 h; in the data active = GI50 below about 0.43 µM; inactive = the rest
Outcome codes: yes (1) = active, no (0) = inactive

* CCCCN(CCCC)c1ccc(C(=N)c2ccc(N(CCCC)CCCC)cc2)cc1 | yes (1)
* COc1cccc(-n2ncc3c(N/N=C/c4ccncc4)ncnc32)c1 | no (0)
* CC[C@H](CO)Nc1nc(NCc2ccccc2)n2ncc(C(C)C)c2n1 | no (0)
* O=c1nc2oc3ccc4ccccc4c3cc-2s1 | no (0)
* Cc1c2c(nn1C)CSCc1cc(n(C)n1)CSc1cc(c3ccccc3c1)OCCCc1c(C(=O)O)n(C)c3c-2c(Cl)ccc13 | no (0)
* COc1ccc(C(=O)c2cc3c(N)c(C(=O)Nc4cccc5ccccc45)sc3nc2C)cc1 | yes (1)
* Cc1ccc(S(=O)(=O)Nc2cccc3[nH]c(C(F)(F)F)nc23)cc1 | yes (1)
* CN1CC[C@@H](c2c(O)cc(O)c3c(=O)cc(-c4ccccc4Cl)oc23)[C@@H]1CO | yes (1)
* NC(=S)N/N=C/c1ncccc1N | no (0)
* O=[N+]([O-])c1cccc([As]=[As]c2cccc([N+](=O)[O-])c2)c1 (configuration not stated) | yes (1)
* Cn1cc(C2=C(c3cccc(OCC(O)CO)c3)C(=O)NC2=O)c2ccccc21 (configuration not stated) | no (0)
* COc1ccc(C(=O)/C=C/c2c(Cl)c3c(c(OC)c2Cl)OCC(=O)N3)cc1 | no (0)
